Measured melting point accompanies every entry in the list below.

Which melting point reading was recorded for the compound CCOC(=O)Nc1ccc2c(c1)CC[C@H](CCC(F)(F)F)O2 ?
88 °C

Entry CCOC(=O)CN(C(=O)C(F)(F)F)c1ccc(Cl)cc1C#N has what melting point?
71 to 73 °C

---

Parameter: melting point. Scope: all listed entries.

Past entries and their recorded results:
Field request: melting point | item: COc1cc(C#N)ccc1-c1ccnc(-c2ccc(C#N)cc2)n1
239 to 240 °C

Recorded melting point for COc1cc(O)nc(C(C)(C)C)n1 , please?
175 °C

Given the entry Cc1cccc2c1N(C(=O)OC(C)(C)C)CC(=O)N2 , report its measured melting point.
175 to 177 °C

Which melting point value belongs to O=C(Nc1cc(S(=O)(=O)N2CCC(O)C2)sc1Cl)c1cnn2c(C(F)F)cc(-c3ccc(C(F)(F)F)cc3)nc12 (racemic) ?
274 °C

Further cases:
For the compound shown here, O=C(O)Cc1c[nH]c2cc(C3CC3)nn2c1=O , give the reported melting point.
> 300 °C

Would you mind telling me what melting point value was observed for CSc1ccc(CSc2cccc(C(=O)Nc3ccc(C#N)cn3)c2)cc1 ?
161 to 162 °C

Which melting point is reported for this compound? CCCOc1ccc(F)cc1C(N)=O
114 to 116 °C

What value of measured melting point is listed for O=C(CCn1c(=O)c(=O)[nH]c2cc(C(F)(F)F)c(-n3cccc3)cc21)NCc1ccccc1 ?
234 to 235 °C

// query melting point value for entry Cc1cc(Cl)ccc1N1C(=O)c2ccc(Cl)cc2C1=O
193 to 195 °C
